system: Enterovirus; experiment: Minimum inhibitory concentration against rhinovirus serotype 89; assay type: functional
EXPERIMENTAL READOUT: MIC

A selection of reference data follows.
* Cc1cc(CCCCCOc2c(Cl)cc(C3=NCCO3)cc2[N+](=O)[O-])on1 | 0.02 µM
* Cc1cc(CCCCCOc2c(Cl)cc(C3=NCCO3)cc2C(F)(F)F)on1 | 0.05 µM

Incoming: Look up MIC of Cc1cc(CCCCCOc2c(Br)cc(C3=NCCO3)cc2[N+](=O)[O-])on1 and report it.
Outgoing: 0.03 µM

====

system: Enterovirus; test: Minimum inhibitory concentration against rhinovirus serotype 21.; type: functional
Listed here are compounds together with their documented MIC.

// solved cases for MIC follow
- Cc1cc(CCCCCOc2c(Cl)cc(C3=NCCO3)cc2Br)on1: 0.2 µM
- Cc1cc(CCCCCOc2c(C)cc(C3=NCCO3)cc2C)on1: 0.5 µM

Lab note: next compound to report on.
Incoming: Determine its reported MIC: Cc1cc(CCCCCOc2c(Br)cc(C3=NCCO3)cc2[N+](=O)[O-])on1
Outgoing: 0.6 µM

====

Each entry below carries its recorded MIC.
system: Enterovirus; assay: In vitro anti-rhinovirus activity was measured as maximum testable levels - highest concentration of compound which causes no apparent effect on the cell monolayers; assay type: functional
Report the value in µM with no unit label.

Record excerpt, results attached:
• Cc1cc(CCCCCOc2c(Br)cc(C3=NCCO3)cc2[N+](=O)[O-])on1 = 1.2
• Cc1cc(CCCCCOc2c(F)cc(C3=NCCO3)cc2F)on1 = 2.7
• COc1cc(C2=NCCO2)cc(OC)c1OCCCCCc1cc(C)no1 = 7.7
• Cc1cc(CCCCCOc2c(Cl)cc(C3=NCCO3)cc2[N+](=O)[O-])on1 = 1.4

Incoming: Provide MIC, system Enterovirus, entry Cc1cc(CCCCCOc2c(Cl)cc(C3=NCCO3)cc2C(F)(F)F)on1
Outgoing: 0.5

Incoming: Recall the reported MIC of Cc1cc(CCCCCOc2ccc(C3=NCCO3)cc2)on1 on Enterovirus and write it down.
Outgoing: 5.2

Incoming: Output reported MIC of the compound Cc1cc(CCCCCOc2c(C)cc(C3=NCCO3)cc2Cl)on1 on Enterovirus.
Outgoing: 0.7

Incoming: Please look at Cc1cc(CCCCCOc2c(Cl)cc(C3=NCCO3)cc2Br)on1 and tell me its recorded MIC on Enterovirus.
Outgoing: 0.6

Incoming: // fetch MIC for Cc1cc(CCCCCOc2c(C)cc(C3=NCCO3)cc2C)on1 ; system: Enterovirus
Outgoing: 0.8

Incoming: Please report the measured MIC for Cc1cc(CCCCCOc2c(Br)cc(C3=NCCO3)cc2Br)on1 tested on Enterovirus.
Outgoing: 0.6
